These entries and their values trace back to patent US10125134B2.

target: KRas G12C (Homo sapiens, UniProt P01116, C118S/C51S/C80L/G12C); assay: KRas G12C Modification Assay (LCMS detection of covalent adduct); type: binding; settings: normalized percent of control; tested at 5 μM concentration for 3 hours
Counter-ions that a name gives are not always drawn.
experimental-endpoint: POC

The following compounds have reported results that may help.
1) C=CC(=O)N1CCN(c2nc(OC[C@@H]3CCCN3C)nc3c2CCN(c2cncc(F)c2C(F)(F)F)C3)C[C@@H]1CC#N    C (“C”>50% POC)
2) C=CC(=O)N1CCN(c2nc(OCC3CCCN(C)C3)nc3c2CCN(c2cc(O)cc4ccccc24)C3)CC1 (centres unmarked)    C (“C”>50% POC)
3) C=CC(=O)N1CCN(c2nc(OC[C@@H]3CCCN3C)nc3c2CCN(c2cccc4ccc(Cl)cc24)C3)CC1CC#N (some centres unmarked) [Example 286]    C (“C”>50% POC)
4) C=CC(=O)N1CCN(c2nc(OCCN(C)C)nc3c2CC(C)N(c2cc(O)cc4ccccc24)C3)CC1 (centres unmarked) [Example 48, trifluoroacetate]    C (“C”>50% POC)
5) CN(C)C/C=C/C(=O)N1CCN(c2nc(OC[C@@H]3CCCN3C)nc3c2CCN(c2cc(O)cc4ccccc24)C3)CC1    C (“C”>50% POC)

Please find the next compound below.
For the compound "C=CC(=O)N1CCN(c2nc(OCCCN3C[C@@H]4C[C@H]3CO4)nc3c2CCN(c2c(C)ccc4[nH]ncc24)C3)CC1" , give its measured POC value.
C (“C”>50% POC)
